Values were extracted from Sander's compilation of Henry's law constants.

measurement-protocol: Henry solubility constant Hcp at 295 K (mol/(m3 Pa))
protocol-conditions: reference: de Wolf and Lieder (1998)
readout-name: Henry solubility constant Hcp at 295 K
Give bare numbers.

INSERT INTO results (smiles_notation, measurement) VALUES
  ('Clc1ccccc1', 0.0034);

Count: 2. Required value per item: Henry solubility constant Hcp at 295 K.
1. Brc1ccccc1
2. c1ccccc1

[0.005, 0.0022]

###

I'd be grateful if you could share measured Henry solubility constant Hcp for these entries.
measurement-protocol: Henry solubility constant Hcp at 298.15 K (mol/(m3 Pa))
protocol-conditions: reference: Shunthirasingham et al. (2013)
Answers are plain numbers.

Answered examples (2):
INSERT INTO assay_data (smiles_notation, measurement) VALUES
  ('CCCCCCCCCCO', 0.076),
  ('CCCCCO', 0.81);

Let us examine a further case.
Given the compound CCCCCCCO , write its reported Henry solubility constant Hcp.
0.38
